- measured_on: T1, CD3 on primary human pan T cells (human, UniProt P07766 23-207)
- T1 construct: on cells it stands in the TCR/CD3 complex; also called Pan T-cells (CD3-positive); endogenous CD3
- assay_name: flow cytometry, pan T-cells

binder: CD3B2087 (scFv) scFv: QVQLVQSGAEVKKPGSSVKVSCKASGYTFTRSTMHWVRQAPGQGLEWMGYINPSSAYTNYAQKFQGRVTLTADKSTSTAYMELSSLRSEDTAVYYCASPQVHYDYNGFPYWGQGTLVTVSSGGSEGKSSGSGSESKSTGGSEIVLTQSPATLSASPGERVTLSCSASSSVSYMNWYQQKPGTAPRRLIYDSSKLASGVPARFSGSGSGRDYTLTISSLEPEDFAVYYCQQWSRNPPTFGGGTKVEIK
% Binding retained on T-cells, 60° C.: 0.964 fraction
//
binder: CD3B2071 (scFv) scFv: QVQLVQSGAEVKKPGSSVKVSCKASGYTFTRSTMHWVRQAPGQGLEWMGYINPSSAYTNYNQKFQGRVTLTADKSTSTAYMELSSLRSEDTAVYYCASPQVHYDYNGFPYWGQGTLVTVSSGGSEGKSSGSGSESKSTGGSEIVLTQSPATLSASPGERVTLSCSASSSVSYMNWYQQKPGTAPRRLIYDSSKLASGVPARFSGSGSGRDYTLTISSLEPEDFAVYYCQQWSRNPPTFGGGTKVEIK
% Binding retained on T-cells, 60° C.: 0.899 fraction
